Just for reference, the DeepSol protein solubility set is where these values come from.

assay: soluble on expression in E. coli; label from the status in PepcDB or PDB records
attributeMeasured: soluble on expression in E. coli

Worked set:
Task: # lookup: soluble on expression in E. coli of `MSLEIGEKLRNLRIQKNLTQEELGERTDLSKGYISQLERDLSSPSMETFFSILEVLGVTPEQFFSQQPLEQKIVYNEEESTLYYDEEHGYELKWLIPASNEKEMEPVIITFDKNGEYKTFEPSLSETFIYVIDGSIRLTLGEATYIAKKGQTMYYQATEPHQISNNGRGKSRALIVATESYLEGGSHHHHHH`
Result: soluble

Task: What do you have for `MGSDKIHHHHHHMIVNLSRLGKSGTGMWQYSIKFLTALREIADVDAIICSKVHADYFEKLGYAVVTVPNIVSNTSKTSRLRPLVWYVYSYWLALRVLIKFGNKKLVCTTHHTIPLLRNQTITVHDIRPFYYPDSFIQKVYFRFLLKMSVKRCKHVLTVSYTVKDSIAKTYNVDSEKISVIYNSVNKSDFIQKKEKENYFLAVGASWPHKNIHSFIKNKKVWSDSYNLIIVCGRTDYAMSLQQMVVDLELKDKVTFLHEVSFNELKILYSKAYALVYPSIDEGFGIPPIEAMASNTPVIVSDIPVFHEVLTNGALYVNPDDEKSWQSAIKNIEQLPDAISRFNNYVARYDFDNMKQMVGNWLAESK` ?
Result: not soluble

Task: What do you have for `MRKGLLAALLLLSACQVLEGSGYRVTEVQFLFPEATERWTYFYGEPRVVELDGRPLRLEAPQGENLWAFPGALWVEGSPVLRATYPSRPPVAEAVRGVSGSLLQVRAQAPLLATWLYDGVGWVRLTGSLREGEERTLVQPANYQTPRLFPLTEEESAVVLREVLARRGGKPVVVFELREPPLPPLRLSPAPDAYRIARLQVQYGLRLEPVMPPAPIFRVLGQGTQAAYQEEAPLALLANDPTSFNRLWALAVGNQLPRPAAPAVDFRNRSVAAFFWGLKPTGGYGLKVVGVTYAGERARVVLSLGAPKPGAITTQALTSPYVVLELQKVRRVVFADTSGKVLAEARD` ?
Result: soluble

Task: What do you have for `MSLILVYSTFPNEEKALEIGRKLLEKRLIACFNAFEIRSGYWWKGEIVQDKEWAAIFKTTEEKEKELYEELRKLHPYETPAIFTLKVENVLTEYMNWLRESVLEGGSHHHHHH` ?
Result: soluble

Task: What do you have for `MKPPICRRMSLPPVLAKKEGERIQVPEGGELVCYRNQEDQHLFLKIEYSRETMIKLSSSVFCYARPTGLKEVSDELPELLGLPHSIPLTDSPPNFECLPEPLAHVSGCNSHFSMNHPPPLLSPLRGPVTEADEAMRTLSSHRELQKRLQNMSMRGELSPSGCLVDSCDTPAIRQIRNPQFT` ?
Result: not soluble

Required: soluble on expression in E. coli, one value per sequence below.
1. MASKTIIVMSDSHGDRDIVQAIKDKYLGQVDAIFHNGDSELNSSDPIWAGIYVVGGNCDYDTGYPDRLVTQLGTVTIAQTHGHLYHINFTWDKLDYFAQEVVADICLYGHLHRPAAWQVGQTLFMNPGSVTQPRGEINEKLYARVELTDTQIKVDYFTRDHKLYPSLSKEFKR
2. MSLSNWPYPRIVAHRGGGKLAPENTLASIDVGAKYGHKMIEFDAKLSKDGEIFLLHDDNLERTSNGWGVAGELNWQDLLRVDAGSWYSKMFKGEPLPLLSQVAERCREHGMMANIEIKPTTGTGPLTGKMVALAARELWAGMTPPLLSSFEIDALEAAQQAAPELPRGLLLDEWRDDWRELTARLGCVSIHLNHKLLNKARVMQLKDAGLRILVYTVNKPQRAAELLRWGVDCICTDAIDVIGPNFTAQEGHHHHHH

Result:
1. not soluble
2. soluble
